- protocol text: Mass balance study: plasma PK of eravacycline, TP-498 and TP-6208 (LC-MS)
- Assay type: in vivo, human
- run parameters: human, iv, 60 mg; plasma, single i.v. dose of [14C]eravacycline, geometric mean (%CV), n = 2; read-out: MRT0-∞
measured attribute: MRT inf

Given item CN(C)[C@@H]1C(O)=C(C(N)=O)C(=O)[C@@]2(O)C(O)=C3C(=O)c4c(O)c(NC(=O)CN5CCCC5)cc(F)c4C[C@H]3C[C@@H]12 , the value recorded as its MRT inf is 15.9 h

----------
- protocol text: Drug interaction study with rifampin (CYP3A4 inducer): plasma PK of i.v. eravacycline and metabolites
- Type: in vivo, human
- run parameters: human, plasma, intravenous; day 17, with rifampin, mean ± SD, n = 12
measured attribute: half-life

half-life recorded for this compound, CN(C)[C@@H]1C(O)=C(C(N)=O)C(=O)[C@@]2(O)C(O)=C3C(=O)c4c(O)c(NC(=O)CN5CCCC5)cc(F)c4C[C@H]3C[C@@H]12 , is 11 h

----------
- protocol text: Mass balance study: plasma PK of eravacycline, TP-498 and TP-6208 (LC-MS)
- Assay type: in vivo, human
- run parameters: male, human, iv, 60 mg; plasma, single i.v. dose of [14C]eravacycline, geometric mean (%CV), n = 2
measured attribute: AUC(0-inf) (ng·h/mL)
Just the number please, in ng·h/mL, no unit attached.

Form field AUC(0-inf), entry CN(C)[C@@H]1C(O)=C(C(N)=O)C(=O)[C@@]2(O)C(O)=C3C(=O)c4c(O)c(NC(=O)CN5CCCC5)cc(F)c4C[C@H]3C[C@@H]12 : 4380

----------
- protocol text: Drug interaction study with itraconazole (CYP3A4 inhibitor): plasma PK of i.v. eravacycline and metabolites
- Type: in vivo, human
- run parameters: human, plasma, iv; day 10, eravacycline 1 mg/kg i.v. with itraconazole, mean ± SD, n = 10; read-out: Vss
measured attribute: Vd
Report the figure along with its unit, number first.

The measured Vd associated with CN(C)[C@@H]1C(O)=C(C(N)=O)C(=O)[C@@]2(O)C(O)=C3C(=O)c4c(O)c(NC(=O)CN5CCCC5)cc(F)c4C[C@H]3C[C@@H]12 reads 3.37 L/kg

----------
- protocol text: Drug interaction study with rifampin (CYP3A4 inducer): plasma PK of i.v. eravacycline and metabolites
- Assay type: in vivo, human
- run parameters: human, plasma, intravenous; day 17, with rifampin, mean ± SD, n = 12
measured attribute: AUC(0-inf) (ng·h/mL)
Report only the number, with the unit ng·h/mL understood.

Reported AUC(0-inf) of CN(C)[C@@H]1C(O)=C(C(N)=O)C(=O)[C@@]2(O)C(O)=C3C(=O)c4c(O)c(NC(=O)CN5CCCC5)cc(F)c4C[C@H]3C[C@@H]12 : 3520

----------
- protocol text: Drug interaction study with itraconazole (CYP3A4 inhibitor): plasma PK of i.v. eravacycline and metabolites
- Type: in vivo, human
- run parameters: human, plasma, iv; day 10, eravacycline 1 mg/kg i.v. with itraconazole, mean ± SD, n = 10
measured attribute: clearance (mL/min/kg)
Numbers only; they are read as mL/min/kg.

In plain terms, CN(C)[C@@H]1C(O)=C(C(N)=O)C(=O)[C@@]2(O)C(O)=C3C(=O)c4c(O)c(NC(=O)CN5CCCC5)cc(F)c4C[C@H]3C[C@@H]12 [eravacycline] has a documented clearance of 2.57
